Reference source for all entries: the supplement of paper PMC4862054

test system: BT-549; test: normalised viability (% of control), CellTiter-Blue; higher = more viable cells (100 = DMSO, 0 = benzethonium chloride kill control); settings: incubation time: 72 h
Form field: normalised viability (one value per entry).
The response must be a number in % with no trailing unit.

Answered examples (3):
molecule="CC[C@H](CO)Nc1nc(NCc2ccccc2)c2ncn(C(C)C)c2n1 [Roscovitine] (1 nM)" endpoint_unit=% numeric_result=105
molecule="CC(C)C[C@H](NC(=O)[C@@H](COC(C)(C)C)NC(=O)[C@H](Cc1ccc(O)cc1)NC(=O)[C@H](CO)NC(=O)[C@H](Cc1c[nH]c2ccccc12)NC(=O)[C@H](Cc1cnc[nH]1)NC(=O)[C@@H]1CCC(=O)N1)C(=O)N[C@@H](CCCNC(=N)N)C(=O)N1CCC[C@H]1C(=O)NNC(N)=O [Goserelin] (1 nM)" endpoint_unit=% numeric_result=93.1
molecule="C/C(=C\\c1csc(C)n1)[C@@H]1C[C@@H]2O[C@]2(C)CCC[C@H](C)[C@H](O)[C@@H](C)C(=O)C(C)(C)[C@@H](O)CC(=O)N1 [Ixabepilone] (0.1 nM)" endpoint_unit=% numeric_result=90.8

Kindly consider the entry below.
Ask | Any idea what normalised viability was measured for CC1(C)CCC(c2ccc(Cl)cc2)=C(CN2CCN(c3ccc(C(=O)NS(=O)(=O)c4ccc(N[C@H](CCN5CCOCC5)CSc5ccccc5)c(S(=O)(=O)C(F)(F)F)c4)cc3)CC2)C1 [Navitoclax] (1 nM) ?
Reply | 103

* * *

test system: Hs578T; assay: normalised viability (% of control), CellTiter-Blue; higher = more viable cells (about 100 = DMSO control); settings: 10 nM; incubation time: 72 h
reported_property: normalised viability (%)
Reply with just the number (in %).

Worked cases, normalised viability given:
molecule=CC1(C)CCC(c2ccc(Cl)cc2)=C(CN2CCN(c3ccc(C(=O)NS(=O)(=O)c4ccc(N[C@H](CCN5CCOCC5)CSc5ccccc5)c(S(=O)(=O)C(F)(F)F)c4)cc3)CC2)C1 reported_property="normalised viability" numeric_result=91.8
molecule=CNC(=O)c1ccccc1Sc1ccc2c(/C=C/c3ccccn3)n[nH]c2c1 reported_property="normalised viability" numeric_result=92.1

Ask | normalised viability lookup needed for CC(O)(CS(=O)(=O)c1ccc(F)cc1)C(=O)Nc1ccc(C#N)c(C(F)(F)F)c1 (stereo not given) [Bicalutamide] , thanks.
Reply | 108

Ask | Requested field: normalised viability. Item: CC(C)(C)NC(=O)[C@H]1CC[C@H]2[C@@H]3CC[C@H]4NC(=O)C=C[C@]4(C)[C@H]3CC[C@]12C [Finasteride]
Reply | 64.2

Ask | Which normalised viability is reported for this molecule? C=CCN(/C=C1/C(=O)O[C@H](COC)[C@@]2(C)C1=C(O)C(=O)C1=C2[C@H](OC(C)=O)C[C@]2(C)C(=O)CC[C@@H]12)CC=C
Reply | 120

* * *

Measured drug sensitivity score, listed per entry.
test system: HCC1143; test: drug sensitivity score (DSS), CellTox Green (DSS (AUC-based score)); higher = stronger drug effect (viability inhibition or cytotoxicity); extreme values may be limits of the assay; conditions: incubation time: 72 h
# respond with the number and nothing more

Below are worked cases with known answers.
structure=CC(C)(C)c1nc(-c2cccc(NS(=O)(=O)c3c(F)cccc3F)c2F)c(-c2ccnc(N)n2)s1 reported_property="drug sensitivity score" numeric_result=0
structure=CO[C@@H]1[C@H](N(C)C(=O)c2ccccc2)C[C@H]2O[C@]1(C)n1c3ccccc3c3c4c(c5c6ccccc6n2c5c31)C(=O)NC4 reported_property="drug sensitivity score" numeric_result=0
structure=CN[C@@H](C)C(=O)N[C@H]1CN(C(=O)CC(C)C)CC[C@H]2CC[C@@H](C(=O)NC(c3ccccc3)c3ccccc3)N2C1=O reported_property="drug sensitivity score" numeric_result=0

# evaluate next
Ask | What value of drug sensitivity score has been reported for the following molecule? CCn1c(C(=O)N(C2CC2)C2CC2)cc2c3c(ncn3C)c(Nc3cc(C)n(C)n3)nc21
Reply | 1.62

* * *

Attribute: normalised response
system: MDA-MB-436; assay: normalised response (% of control), CellTox Green; higher = less cell death (100 = DMSO, 0 = benzethonium chloride kill control); details: incubation time: 72 h
Reply with the number and its unit after it.

Look over these answered cases.
compound="CC1(COc2ccc3c(c2)ncn3-c2ccc3cccc(N4CCC(N)CC4)c3n2)COC1 [Crenolanib] (1000 nM)" result=50.8%
compound="Cc1cn(-c2cc(NC(=O)c3ccc(C)c(Nc4nccc(-c5cccnc5)n4)c3)cc(C(F)(F)F)c2)cn1 [Nilotinib] (1000 nM)" result=82.2%
compound="CNC(=O)c1ccccc1Sc1ccc2c(/C=C/c3ccccn3)n[nH]c2c1 [Axitinib] (10000 nM)" result=89%

Ask | Please give the measured normalised response for this compound: CO[C@@]12[C@H](COC(N)=O)C3=C(C(=O)C(C)=C(N)C3=O)N1C[C@@H]1N[C@@H]12 [Mitomycin C] (10000 nM)
Reply | 90.2%

Ask | // normalised response lookup, key: C=CCn1c(=O)c2cnc(Nc3ccc(N4CCN(C)CC4)cc3)nc2n1-c1cccc(C(C)(C)O)n1 [MK1775] (10000 nM)
Reply | 67.1%

Ask | Would you mind telling me what normalised response value was observed for CCN(CC)CCCC(C)Nc1ccnc2cc(Cl)ccc12 (configuration not stated) [Chloroquine] (100000 nM) ?
Reply | 42.2%

Ask | Sample CC(C)n1cnc2c(NCCc3ccc(O)cc3)nc(-c3csc4ccccc34)nc21 [StemRegenin 1] (1000 nM) — what was its normalised response?
Reply | 110%

* * *

test system: CAL-85-1; assay: normalised viability (% of control), CellTiter-Blue; higher = more viable cells (about 100 = DMSO control); settings: incubation time: 72 h
reported_property: normalised viability (%)
// note: answer is a bare numeric in %

Below are worked cases with known answers.
compound="C/C(=C\\c1csc(C)n1)[C@@H]1C[C@@H]2O[C@]2(C)CCC[C@H](C)[C@H](O)[C@@H](C)C(=O)C(C)(C)[C@@H](O)CC(=O)N1 [Ixabepilone] (30 nM)" endpoint_unit=% numeric_result=85
compound="Nc1ccn([C@@H]2O[C@H](CO)[C@@H](O)C2(F)F)c(=O)n1 [Gemcitabine] (30 nM)" endpoint_unit=% numeric_result=58.7
compound="CN(Cc1cnc2nc(N)nc(N)c2n1)c1ccc(C(=O)N[C@@H](CCC(=O)O)C(=O)O)cc1 [Methotrexate] (300 nM)" endpoint_unit=% numeric_result=68.7

Note: attention shifts to another entry.
Ask | Request - read-out normalised viability | tested on CAL-85-1 | compound CC[C@H](CO)Nc1nc(NCc2ccccc2)c2ncn(C(C)C)c2n1 [Roscovitine] (300 nM)
Reply | 93.7

* * *

Quick list: normalised viability per entry.
tested on: CAL-85-1; assay: normalised viability (% of control), CellTiter-Blue; higher = more viable cells (about 100 = DMSO control); conditions: 30 nM; incubation time: 72 h
Please state the figure in %; there is no need to write the unit.

Ask | Can you look up the measured normalised viability of CO[C@@]12[C@H](COC(N)=O)C3=C(C(=O)C(C)=C(N)C3=O)N1C[C@@H]1N[C@@H]12 for me?
Reply | 98.4

Ask | Which normalised viability value is on record for CO[C@@H]1[C@H](N(C)C(=O)c2ccccc2)C[C@H]2O[C@]1(C)n1c3ccccc3c3c4c(c5c6ccccc6n2c5c31)C(=O)NC4 ?
Reply | 111

Ask | Which normalised viability value is on record for CC1(C)CCC(c2ccc(Cl)cc2)=C(CN2CCN(c3ccc(C(=O)NS(=O)(=O)c4ccc(N[C@H](CCN5CCOCC5)CSc5ccccc5)c(S(=O)(=O)C(F)(F)F)c4)cc3)CC2)C1 ?
Reply | 81.1

Ask | What value of normalised viability has been recorded for this entry: C=CCn1c(=O)c2cnc(Nc3ccc(N4CCN(C)CC4)cc3)nc2n1-c1cccc(C(C)(C)O)n1
Reply | 80.9

* * *

Listing of entries alongside the reported normalised response.
system: MDA-MB-468; test: normalised response (% of control), CellTiter-Glo; higher = more viable cells (100 = DMSO, 0 = benzethonium chloride kill control); settings: incubation time: 72 h
Enter your answer as a number in %; do not include the unit.

Ask | Fill blank: measured normalised response of the compound CCNC(=O)c1noc(-c2cc(C(C)C)c(O)cc2O)c1-c1ccc(CN2CCOCC2)cc1 [NVP-AUY922] (1 nM) is ____.
Reply | 107

* * *

normalised response by entry:
tested on: MDA-MB-436; assay: normalised response (% of control), CellTiter-Glo; higher = more viable cells (100 = DMSO, 0 = benzethonium chloride kill control); conditions: incubation time: 72 h
Provide only the numeric value, understood in %.

# count of solved cases: 5
compound="CCNC(=O)CCC/C=C\\C[C@@H]1[C@@H](/C=C/[C@@H](O)CCc2ccccc2)[C@H](O)C[C@@H]1O [Bimatoprost] (5500 nM)" numeric_result=104
compound="C/C(=C\\c1csc(C)n1)[C@@H]1C[C@@H]2O[C@]2(C)CCC[C@H](C)[C@H](O)[C@@H](C)C(=O)C(C)(C)[C@@H](O)CC(=O)N1 [Ixabepilone] (1000 nM)" numeric_result=103
compound="C=CCN(/C=C1/C(=O)O[C@H](COC)[C@@]2(C)C1=C(O)C(=O)C1=C2[C@H](OC(C)=O)C[C@]2(C)C(=O)CC[C@@H]12)CC=C [Sonolisib] (10000 nM)" numeric_result=101
compound="CO[C@@]12[C@H](COC(N)=O)C3=C(C(=O)C(C)=C(N)C3=O)N1C[C@@H]1N[C@@H]12 [Mitomycin C] (10000 nM)" numeric_result=41.7
compound="CO[C@@H]1[C@H](N(C)C(=O)c2ccccc2)C[C@H]2O[C@]1(C)n1c3ccccc3c3c4c(c5c6ccccc6n2c5c31)C(=O)NC4 [Midostaurin] (10000 nM)" numeric_result=68.8

Now, please, on to the next compound.
Ask | Give the measured normalised response of COc1cc(Nc2c(C#N)cnc3cc(OCCCN4CCN(C)CC4)c(OC)cc23)c(Cl)cc1Cl [Bosutinib] (10000 nM) .
Reply | 5.63
